test system: Escherichia coli TOP10; assay: shrunken log2 fold change of peptide-encoding DNA abundance (4.5 h post-induction vs induction); higher = less antimicrobial activity (less host growth inhibition); conditions: time post-induction: 4.5 h; library: site-saturation at positions 5, 18, 19, 20;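 note: peptides expressed intracellularly from a pBAD plasmid library in pooled LB shake-flask culture, induced with 0.3% L-arabinose, DNA abundance read by NGS, three biological replicates, DESeq2 with apeglm shrinkage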
Rule: shrunken log2 fold change under -0.07 gives condition not met, otherwise condition met.

[[record]]
ordered_residues = "RRIRQRPPRLPRPRPRPPIKPRP"
discrete_label = "condition met"

[[record]]
ordered_residues = "RRIRVRPPRLPRPRPRPSKCPRP"
discrete_label = "condition met"

[[record]]
ordered_residues = "RRIRYRPPRLPRPRPRPTWNPRP"
discrete_label = "condition not met"

[[record]]
ordered_residues = "RRIRHRPPRLPRPRPRPTDPPRP"
discrete_label = "condition met"


Ref: the supplement of paper PMC9112550
